tested on: MRP1 cells, doxorubicin viability shift, 10 uM compound; test: viability protection against doxorubicin, MRP-1 line – cell-based, doxorubicin EC50 shift, dose response (AID 844)
Classify: Criterion met when fold increase in Dox EC50 is strictly less than 0.9; Criterion not met when fold increase in Dox EC50 is not.

Lookup: Take the molecule "Cc1cc(N/N=C/c2ccccc2Cl)nc(NCc2ccccc2)n1" and say whether its fold increase in Dox EC50 is less than 0.9.
Found: Criterion met

Lookup: # check: fold increase in Dox EC50 < 0.9 for COc1ccc(C2=NN(C(=O)c3cccs3)C(c3ccc(OC)cc3)C2)cc1 (stereo unspecified)
Found: Criterion not met

Lookup: fold increase in Dox EC50 strictly < 0.9 for this molecule? "Cc1c(C(=O)OC(C)C)sc(N)c1C(=O)OC(C)C"
Found: Criterion not met

Lookup: Dear reviewer, please state whether "CCOC(=O)CSc1nc(N)nc(C)c1Br" has fold increase in Dox EC50 strictly beneath 0.9.
Found: Criterion met

Lookup: Below 0.9 on fold increase in Dox EC50? Entry C=CCOC(=O)C(C#N)c1nc2ccccc2nc1N1CCN(c2ccccc2OCC)CC1 (stereo unspecified)
Found: Criterion met

Lookup: Input "O=C(CCCCl)NC1=NN(c2ccccc2)C(=O)C1" ; condition: fold increase in Dox EC50 strictly below 0.9. Does it hold?
Found: Criterion not met

Lookup: is_below(fold increase in Dox EC50, 0.9) for CCCC1S/C(=N/N=C/c2ccc(OC)cc2)N(Cc2ccccc2)C1=O (stereo unspecified) ?
Found: Criterion not met

Lookup: Dear reviewer, please state whether "O=C(Nc1nc(COc2ccccc2)cs1)c1ccccc1F" has fold increase in Dox EC50 strictly beneath 0.9.
Found: Criterion not met

Lookup: A record lists "Cn1nnc(NC(=O)COc2ccc(C3CCCCC3)cc2)n1" . Is its fold increase in Dox EC50 below 0.9?
Found: Criterion not met

Lookup: In plain terms, does "Cc1nn(Cc2ccc(Cl)cc2Cl)c(C)c1NC(=O)c1ccc(COc2cc(Cl)ccc2Cl)o1" come in under 0.9 for fold increase in Dox EC50?
Found: Criterion met

Lookup: fold increase in Dox EC50 under 0.9? Item: CC1CCc2nn(CC(=O)N3CCN(C(=O)c4ccco4)CC3)cc2C1 (stereo unspecified)
Found: Criterion met

Lookup: Does the reported fold increase in Dox EC50 of the following molecule sit strictly below 0.9? "COc1ccc(/C=C/C(=O)NCc2cnn(C)c2C)cc1COc1ccc(Br)cc1"
Found: Criterion met

Lookup: Identify whether the molecule O=C(O)c1cccc(N2C(=O)C3CC=C(Cl)CC3C2=O)c1 (stereo unspecified) records fold increase in Dox EC50 below 0.9.
Found: Criterion not met

Lookup: Does COc1ccc(C2CC(c3ccccc3)=NN2C(=O)COC(=O)c2cccnc2Cl)cc1 (stereo unspecified) have fold increase in Dox EC50 strictly under 0.9?
Found: Criterion met

Lookup: Strictly below 0.9 in fold increase in Dox EC50? "CCc1nnc(NC(=O)CCC(=O)N2CCN(Cc3ccc(Cl)cc3)CC2)s1"
Found: Criterion met

Lookup: Quick check: fold increase in Dox EC50 of O=C1CC(c2nc3ccccc3[nH]2)CN1c1cccc(C(F)(F)F)c1 (stereo unspecified) under 0.9?
Found: Criterion not met

Lookup: Hi there! Is fold increase in Dox EC50 for COc1cccc(C2C(C(=O)Nc3nc4ccccc4s3)=C(C)NC3=C2C(=O)CC(C)(C)C3)c1OC (stereo unspecified) below 0.9, do you know?
Found: Criterion met

Lookup: Dear colleague, could you confirm whether fold increase in Dox EC50 of "FC(F)(F)c1cccc(CNc2ncccc2-c2nc3cc(Cl)ccc3o2)c1" falls below 0.9? Thanks.
Found: Criterion not met

Lookup: is_below(fold increase in Dox EC50, 0.9) for O=C1NC(=Nc2ccc(Cl)cc2)SC1Cc1cccc(Cl)c1Cl (stereo unspecified) ?
Found: Criterion not met

Lookup: Is 0.9 strictly greater than the molecule's reported fold increase in Dox EC50? molecule: "Cc1c(N2C(=O)/C(=C/c3ccccc3)SC2=S)c(=O)n(-c2ccccc2)n1C"
Found: Criterion met

Lookup: Determine whether this molecule shows fold increase in Dox EC50 lower than 0.9 (ties excluded): "COc1ccc(CNc2nc3c(c(=O)n(Cc4ccc(Br)cc4)c(=O)n3C)n2C)cc1"
Found: Criterion not met

Lookup: Lab log: compare recorded fold increase in Dox EC50 with 0.9; is it strictly lower for "COC(=O)c1ccc(NC(=O)C(=O)N2CCN(C(=S)Nc3cccc(OC)c3)CC2)cc1" ?
Found: Criterion not met

Lookup: Problem: For the molecule O=C1CC(N2CCC(n3c(=O)[nH]c4ccccc43)CC2)C(=O)N1c1ccc(F)cc1 (stereo unspecified) , is fold increase in Dox EC50 under 0.9?
Found: Criterion not met

Lookup: Is the reported fold increase in Dox EC50 for "Cc1cccc(OCCNC(=O)c2ccc(Oc3ccc(C(F)(F)F)cc3[N+](=O)[O-])cc2)c1" strictly below 0.9?
Found: Criterion not met

Lookup: # strict comparison: is reported fold increase in Dox EC50 < 0.9? input = "Cc1nc2cc(-c3ccsc3-n3c(C)ccc3C)[nH]n2c(=O)c1Cl"
Found: Criterion met

Lookup: Find out if reported fold increase in Dox EC50 for "CCOc1ccc(-c2nc(C#N)c(NCC(C)C)o2)cc1" is less than 0.9
Found: Criterion not met

Lookup: Find out if reported fold increase in Dox EC50 for "Cc1cc(C(=O)COC(=O)c2ccc3c(c2)OCO3)c(C)n1Cc1cccs1" is less than 0.9
Found: Criterion not met

Lookup: I'd appreciate it if you could check whether "COc1ccc(CNc2nc(NCc3ccc(OC)cc3)n(C(=O)c3ccccc3[N+](=O)[O-])n2)cc1" has fold increase in Dox EC50 smaller than 0.9.
Found: Criterion met

Lookup: Bench note: check whether "N#Cc1c(-c2cccs2)nc(SCC(=O)c2cccs2)[nH]c1=O" shows fold increase in Dox EC50 below 0.9
Found: Criterion not met

Lookup: Lab note: confirm whether the reported fold increase in Dox EC50 for this molecule is below 0.9, equality not counting. molecule: "CCn1c(SCc2ccc(Cl)cc2)nc2nc3c(cc2c1=O)CCCC3"
Found: Criterion met

Lookup: Is it true that fold increase in Dox EC50 reported for "CCOC(=S)NC(=O)c1sc2ccccc2c1Cl" is less than 0.9?
Found: Criterion not met

Lookup: Does the reported fold increase in Dox EC50 of the following molecule sit strictly below 0.9? Cc1ccc(C(c2sc3ncnn3c2O)N2CCC(C)CC2)cc1 (stereo unspecified)
Found: Criterion met

Lookup: Please let me know if "CC(C)Cn1c2c(c(O)c(C(=O)Nc3nccs3)c1=O)CCCC2" shows fold increase in Dox EC50 below 0.9.
Found: Criterion met

Lookup: Please determine if "COc1ccc(-c2[nH]ncc2-c2cnn(-c3ccccc3)c2)c(O)c1" is below 0.9 in terms of fold increase in Dox EC50.
Found: Criterion met

Lookup: Dear colleague, could you confirm whether fold increase in Dox EC50 of "N=C(N)SCc1ccccc1Cl" falls below 0.9? Thanks.
Found: Criterion met

Lookup: Just wondering, is fold increase in Dox EC50 of CC1=C(C(=O)Nc2ccccc2)C(c2ccc(C)o2)N2C(=O)CSC2=N1 (stereo unspecified) below 0.9?
Found: Criterion met

Lookup: Is the reported fold increase in Dox EC50 for "COc1ccc(OCc2nc3ccc(S(=O)(=O)Nc4ccccc4Cl)cc3[nH]2)cc1" strictly below 0.9?
Found: Criterion not met

Lookup: In plain terms, does "O=C(Nc1nc(-c2cccc([N+](=O)[O-])c2)cs1)C(c1ccccc1)c1ccccc1" come in under 0.9 for fold increase in Dox EC50?
Found: Criterion not met

Lookup: Regarding "COc1ccc(NC(=O)c2oc3ccccc3c2NC(=O)C(C)(C)C)cc1" , kindly confirm whether its fold increase in Dox EC50 is beneath 0.9.
Found: Criterion met

Lookup: Consider COc1ccc(N2Cc3cccc(C(=O)NC(C)CCc4ccco4)c3C2=O)cc1 (stereo unspecified) . Does its fold increase in Dox EC50 lie strictly below 0.9?
Found: Criterion met
